molecular target: D3 (h) (Homo sapiens); construct: host or cells: CHO cells; experiment: Competition assay to measure binding affinity at D3 receptor; settings: test ligand 10 μM; [3H]methylspiperone […]
Sequence (P35462 whole entry): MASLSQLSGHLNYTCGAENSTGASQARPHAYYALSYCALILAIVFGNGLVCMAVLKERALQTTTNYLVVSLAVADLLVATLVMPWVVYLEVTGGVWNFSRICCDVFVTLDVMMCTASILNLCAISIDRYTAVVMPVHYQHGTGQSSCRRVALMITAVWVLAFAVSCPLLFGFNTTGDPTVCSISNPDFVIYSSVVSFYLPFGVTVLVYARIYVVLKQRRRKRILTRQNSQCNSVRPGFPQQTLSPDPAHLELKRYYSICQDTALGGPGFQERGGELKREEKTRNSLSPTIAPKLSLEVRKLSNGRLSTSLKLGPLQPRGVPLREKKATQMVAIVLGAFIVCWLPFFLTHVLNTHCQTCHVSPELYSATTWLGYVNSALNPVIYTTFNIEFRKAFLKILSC
Binary label based on D3, percent of control-specific binding with cut-off 40%: below gives Y, not below gives N.

A selection of reference data follows.
- COMPOUND: "FC1(F)Oc2ccc(CCN3CCCC3)cc2O1"
  CLASSIFICATION: "Y"
- COMPOUND: "OCCNCCc1cc2c(cc1Br)OCO2"
  CLASSIFICATION: "Y"
- COMPOUND: "COc1ccc2[nH]cc(CCNC(C)=O)c2c1 [Melatonin, reference compound]"
  CLASSIFICATION: "Y"
- COMPOUND: "COc1cc(CCN)c(OC)cc1Br [2C-B, reference compound]"
  CLASSIFICATION: "N"
- COMPOUND: "Cc1ccc(Sc2ccccc2N2CCNCC2)c(C)c1 [vortioxetine, reference compound]"
  CLASSIFICATION: "N"

INPUT: Hello, I'm reviewing records and need to know if D3, percent of control-specific binding of CC(Cc1ccc2c(c1)OCO2)NCc1cc2c(cc1Br)OCO2 (stereo not shown) is below 40%. Could you check?
OUTPUT: N

INPUT: Hello, I'm reviewing records and need to know if D3, percent of control-specific binding of CON(C)C(C)Cc1ccc2c(c1)OCO2 (stereo not shown) is below 40%. Could you check?
OUTPUT: Y

INPUT: Hello, I'm reviewing records and need to know if D3, percent of control-specific binding of CC(Cc1ccc2c(c1)OCO2)NN(C)C (stereo not shown) is below 40%. Could you check?
OUTPUT: Y

INPUT: Hello, I'm reviewing records and need to know if D3, percent of control-specific binding of CC(Cc1ccc2c(c1)OCCO2)NC1CCC1 (stereo not shown) is below 40%. Could you check?
OUTPUT: Y

INPUT: Hello, I'm reviewing records and need to know if D3, percent of control-specific binding of COc1cc(CC(C)N)c(OC)cc1Br (stereo not shown) [DOB, reference compound] is below 40%. Could you check?
OUTPUT: Y

INPUT: Hello, I'm reviewing records and need to know if D3, percent of control-specific binding of O=c1n(CCCN2CCN(c3cccc(Cl)c3)CC2)nc2ccccn12 [Trazodone, reference compound] is below 40%. Could you check?
OUTPUT: N

INPUT: Hello, I'm reviewing records and need to know if D3, percent of control-specific binding of CC(Cc1ccc2c(c1)OCCO2)NCc1ccc2c(c1)OCO2 (stereo not shown) is below 40%. Could you check?
OUTPUT: N

INPUT: Hello, I'm reviewing records and need to know if D3, percent of control-specific binding of CC(Cc1ccc2c(c1)OCCO2)N1CC(NC(=O)OC(C)(C)C)C1 (stereo not shown) is below 40%. Could you check?
OUTPUT: N
